Literature roundup of MALT1 (Homo sapiens, UniProt Q9UDY8) data, read-out IC50.
MEASURED_ATTRIBUTE: IC50 (nM)

Exercise: // lookup IC50 for O=C(Nc1cnc(-n2nccn2)c(Cl)c1)c1cnn(-c2cnc([C@H]3CCCO3)c3ccccc23)c1C(F)(F)F (single isomer, unassigned)
Solution: 1320

Exercise: Please do the same for CCc1c(C(=O)Nc2cnc(-n3nccn3)c(Cl)c2)cnn1-c1cccc2ncccc12 as well.
Solution: 141

Exercise: What about N#Cc1cc(NC(=O)c2cnn(-c3ccnc4sccc34)c2C(F)(F)F)cnc1-n1nccn1 ?
Solution: 15

Exercise: What about this compound? O=C(Nc1cnc(-n2nccn2)c(Cl)c1)c1cnn(-c2cccc3ccccc23)c1C(F)(F)F
Solution: 12

Exercise: Cool, now N#Cc1cc(NC(=O)c2cnn(-c3cc(N)ncc3Cl)c2C(F)(F)F)cnc1-n1nccn1
Solution: 39

[P] O=C(Nc1ccnc(C(F)(F)F)c1)c1cnn(-c2ccc(F)c3nccn23)c1C(F)(F)F
[Q] N#Cc1cc(NC(=O)c2cnn(-c3ccnc(N)c3Cl)c2C(F)(F)F)cnc1-n1nccn1
[R] O=C(Nc1cnc(-n2nccn2)c(Cl)c1)c1cnn(-c2ccc(F)c(Cl)c2)c1C(F)(F)F
Exercise: Your job: order these 3 records by IC50, ascending. Put the labels in the order asked and list them.
Solution: Q, P, R

[P] CO[C@H](C)c1c(NC(=O)Nc2cnc(-n3nccn3)c(C(F)(F)F)c2)cnc(C)c1Cl
[Q] N#Cc1cc(NC(=O)c2cnn(-c3cccc4c(=O)[nH]ccc34)c2C(F)(F)F)cnc1-n1nccn1
Exercise: Lower value of IC50 belongs to which: P or Q ? Provide the label of your selected option as the answer.
Solution: Q
(Q: 11 nM, P: 680 nM)

* * *

pIC50: −log10 of the molar value.
// cross-study collection: pIC50 for MALT1 (Homo sapiens, UniProt Q9UDY8)
MEASURED_ATTRIBUTE: pIC50

Illustrative cases are given below, each with its answer.
Exercise: // query pIC50 value for entry CN1C(=O)COc2ccc(NC(=O)c3cnn(-c4cccc5ncccc45)c3C(F)(F)F)cc21
Solution: 5.22

Exercise: # repeat for Cn1nc(-n2ncc(C(=O)Nc3cnc(-n4nccn4)c(C#N)c3)c2C(F)(F)F)c2cccnc21
Solution: 6.78

Exercise: Lookup Cc1cncc2c(-n3ncc(C(=O)Nc4cnc(-n5nccn5)c(Cl)c4)c3C(F)(F)F)cccc12
Solution: 5.96

Exercise: What about Cc1ncnn1-c1ccc(NC(=O)c2cnn(-c3cccc4ccncc34)c2C(F)(F)F)cc1Cl ?
Solution: 5.05

Exercise: Please give the result for Nc1ncc(-n2ncc(C(=O)Nc3cc(Cl)c(-n4nccn4)cc3F)c2C(F)(F)F)c2ccccc12 too.
Solution: 7.10

Exercise: Then Cc1ncn(-c2ccc(NC(=O)c3cnn(-c4cccc5ccncc45)c3C(F)(F)F)cc2Cl)n1 ?
Solution: 5.61

Exercise: Subsequent entry: CO[C@H](C)c1c(NC(=O)Nc2cnc(C3CC3)c(C(F)(F)F)c2)cnc(C)c1Br
Solution: 5.99

[a] Cc1ccc(N)nc1-n1ncc(C(=O)Nc2cnc(-n3nccn3)c(Cl)c2)c1C(F)(F)F
[b] CO[C@@H](C)c1c(NC(=O)Nc2cnc(-n3nccn3)c(Cl)c2)cnc(C)c1Cl
Exercise: Look at a and b . Which one has the lower recorded pIC50 number? The response must carry the label of the picked entry.
Solution: a

* * *

Collected set of IC50 measured with MALT1 (Homo sapiens) across studies.
Sequence (Q9UDY8 whole entry): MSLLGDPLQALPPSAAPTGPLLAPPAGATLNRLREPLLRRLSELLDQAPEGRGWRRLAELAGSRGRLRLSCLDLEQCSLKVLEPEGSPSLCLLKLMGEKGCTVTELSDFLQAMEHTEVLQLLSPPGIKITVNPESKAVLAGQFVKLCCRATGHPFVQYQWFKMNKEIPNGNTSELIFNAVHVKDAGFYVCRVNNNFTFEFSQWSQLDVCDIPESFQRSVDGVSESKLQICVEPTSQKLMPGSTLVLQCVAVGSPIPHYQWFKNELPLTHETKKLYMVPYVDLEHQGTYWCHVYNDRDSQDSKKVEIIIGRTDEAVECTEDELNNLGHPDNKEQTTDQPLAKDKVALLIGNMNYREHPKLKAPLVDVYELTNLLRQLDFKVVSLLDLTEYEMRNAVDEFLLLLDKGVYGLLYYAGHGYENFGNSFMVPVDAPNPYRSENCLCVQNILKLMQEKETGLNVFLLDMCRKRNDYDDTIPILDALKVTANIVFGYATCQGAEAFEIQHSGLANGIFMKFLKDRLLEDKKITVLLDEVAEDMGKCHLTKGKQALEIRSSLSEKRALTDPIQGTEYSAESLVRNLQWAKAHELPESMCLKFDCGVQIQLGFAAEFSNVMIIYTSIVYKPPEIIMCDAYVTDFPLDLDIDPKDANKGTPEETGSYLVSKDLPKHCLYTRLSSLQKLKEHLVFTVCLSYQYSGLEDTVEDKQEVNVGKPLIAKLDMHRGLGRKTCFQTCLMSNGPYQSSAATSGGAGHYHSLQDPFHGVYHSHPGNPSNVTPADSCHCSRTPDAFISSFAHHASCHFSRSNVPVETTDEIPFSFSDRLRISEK
MEASURED_ATTRIBUTE: IC50 (nM)

Below are worked cases with known answers.
Exercise: Data request, read-out IC50, for COC(C)c1c(NC(=O)Nc2cnc(-n3nccn3)c(C(F)(F)F)c2)cnc(C(F)F)c1C#N (single isomer, unassigned)
Solution: 230

Exercise: How about this compound: O=C(Nc1cnc(-n2nccn2)c(Cl)c1)c1cnn(-c2cnc(C3CCCO3)c3cccc(C4CCCO4)c23)c1C(F)(F)F (stereo not shown)
Solution: 8910

Exercise: Another compound to look at: N#Cc1cc(NC(=O)c2cnn(-c3cccc4ccncc34)c2C(F)(F)F)cnc1-n1nccn1
Solution: 229

Exercise: Then N#Cc1cc(NC(=O)c2cnn(-c3cccc4ccccc34)c2C(F)(F)F)ccn1 ?
Solution: 389

[a] CC(=O)c1nccc2c(-n3ncc(C(=O)Nc4cnc(-n5nccn5)c(Cl)c4)c3C(F)(F)F)cccc12
[b] CO[C@@H](C)c1c(Cl)cncc1NC(=O)Nc1cnc(-n2nccn2)c(Cl)c1
Exercise: In terms of reported IC50, does a or b have the smaller number? Respond with the label that goes with your answer.
Solution: a

[I] Cn1cc(-n2ncc(C(=O)Nc3cnc(-n4nccn4)c(Cl)c3)c2C(F)(F)F)c2ccccc2c1=O
[II] N#Cc1cc(NC(=O)c2cnn(-c3ncccc3Cl)c2C(F)(F)F)cnc1-n1nccn1
[III] CO[C@H](c1c(NC(=O)Nc2cnc(-n3nccn3)c(C(F)(F)F)c2)cnc(C)c1Cl)C1CC1 (single isomer, unassigned)
Exercise: Given 3 compounds, produce a descending ranking by IC50. When ranking, write the labels in the order the request describes.
Solution: III, II, I

* * *

Reported IC50 against MALT1 (Homo sapiens), gathered from multiple publications, appears below.
MEASURED_ATTRIBUTE: IC50 (nM)

Reference set, count: 5
Exercise: What value of IC50 on MALT1 (Homo sapiens) does [2H]C([2H])([2H])Oc1cncc(NC(=O)Nc2cnc(-n3nccn3)c(C(F)(F)F)c2)c1[C@@H](C)OC (single isomer, unassigned) have?
Solution: 50

Exercise: Lookup O=C(Nc1cnc(-n2nccn2)c(Cl)c1)c1cnn(-c2cncc3sc(C(F)F)cc23)c1C(F)(F)F
Solution: 316

Exercise: And what about the compound O=C(Nc1cnc(-n2nccn2)c(Cl)c1)c1cnn(-c2cccc3occc23)c1C(F)(F)F ?
Solution: 9

Exercise: Likewise for CCc1nc(-n2nccn2)c(Cl)cc1NC(=O)c1cnn(-c2cccc3nccn23)c1C(F)(F)F ?
Solution: 324

Exercise: Input Cc1nc(-n2nccn2)c(Cl)cc1NC(=O)c1cnn(-c2cccc3nnsc23)c1C(F)(F)F
Solution: 22

[a] Cc1nc(-n2nccn2)c(Cl)cc1NC(=O)c1cnn(-c2ccc(C#N)c(N)n2)c1C(F)(F)F
[b] N#Cc1cc(NC(=O)c2cnn(-c3ccc(N)c4ncccc34)c2C(F)(F)F)cnc1-n1nccn1
[c] C=C(C)c1cncc(NC(=O)Nc2cnc(-n3nccn3)c(Cl)c2)c1C(C)OC (racemic)
[d] COc1nccc(-n2ncc(C(=O)Nc3cnc(-n4nccn4)c(C#N)c3)c2C(F)(F)F)c1C
Exercise: Please rank these compounds by IC50 in descending order. Output spec: a listing of the labels in the requested order.
Solution: c, d, a, b
(c: 980 nM, d: 324 nM, a: 200 nM, b: 45 nM)

* * *

// molecules with pIC50 on UniProt Q9UDY8, multi-source literature
pIC50: −log10 of the molar value.
MEASURED_ATTRIBUTE: pIC50

Reference set (3 entries):
Exercise: Suppose we examine the molecule Cc1nc(-n2nccn2)c(Cl)cc1NC(=O)c1cnn(-c2cccc3scnc23)c1C(F)(F)F ; what pIC50 value has been reported?
Solution: 6.55

Exercise: And for O=C(Nc1cnc(-n2nccn2)c(Cl)c1)c1cnn(-c2cccc(F)c2)c1C(F)(F)F ?
Solution: 6.25

Exercise: How about N#Cc1cc(NC(=O)c2cnn(-c3cncc4ccccc34)c2C(F)(F)F)cnc1OCCCCN ?
Solution: 6.67

[1] COC(C)c1c(NC(=O)Nc2cnc(-n3nccn3)c(C(F)(F)F)c2)cnc(C)c1Br (single isomer, unassigned)
[2] N#Cc1cc(NC(=O)c2cnn(-c3cccc4nccnc34)c2C(F)(F)F)cnc1-n1nccn1
[3] [2H]c1ccc2c(-n3ncc(C(=O)Nc4cnc(-n5nccn5)c(C#N)c4)c3C(F)(F)F)cccc2n1
Exercise: Rank the 3 molecules: largest pIC50 first, smallest last. Answer by naming the labels in the order asked.
Solution: 1, 3, 2
(1: 8.00, 3: 7.77, 2: 7.24)

* * *

Field: IC50. System: MALT1 (Homo sapiens). Provenance: assorted publications.

Exercise: For the compound Cn1nc(-c2cncc(F)c2)c(C(F)(F)F)c1C(=O)Nc1ccnc(C(F)(F)F)c1 , what IC50 is on record?
Solution: 2.5 to 10 µM

Exercise: Same lookup for CO[C@@H](C)c1c(Nc2ccc([C@@H](N(C)C(=O)C3CCS(=O)(=O)CC3)C(F)(F)F)cc2)cnc2nc(Cl)nn12 , please.
Solution: > 1 µM

Exercise: Quick one: N#Cc1cc(-n2ncc(C(=O)Nc3cnc(-n4nccn4)c(C#N)c3)c2C(F)(F)F)ccn1
Solution: 1.91 µM

Query compound follows.
Exercise: What value of measured IC50 is listed for Cc1ccc2ncccc2c1-c1nn(C)c(C(=O)Nc2ccnc(C(F)(F)F)c2)c1C(F)(F)F ?
Solution: 0.5 to 2.5 µM

* * *

pIC50: −log10 of the molar value.
// cross-source set; read-out = pIC50; system = UniProtKB Q9UDY8
MEASURED_ATTRIBUTE: pIC50

Example cases with answers are listed next.
Exercise: Item O=C(Nc1cnc([C@H]2CCCO2)c(Cl)c1)c1cnn(-c2ccc(Cl)n3nccc23)c1C(F)(F)F (single isomer, unassigned) has what recorded pIC50?
Solution: 6.01

Exercise: Now try O=C(Nc1cnc(-n2nccn2)c(Cl)c1)c1cnn(-c2cccc3ncccc23)c1 .
Solution: 4.94

Exercise: Another compound to check: CO[C@@H](C)c1c(NC(=O)Nc2cnc(-n3nccn3)c(Cl)c2)cncc1OC(C)C
Solution: 5.52

Exercise: Follow-up item: COC(C)c1c(NC(=O)Nc2cnc(-n3nccn3)c(Cl)c2)cncc1OC1COC1 (stereo not drawn)
Solution: 5.77

Exercise: Cool, now O=C(Nc1cnc(-c2ncco2)c(Cl)c1)c1cnn(-c2ccc(F)c3ncccc23)c1C(F)(F)F
Solution: 7.02

[I] Cc1ccc(-n2ncc(C(=O)Nc3cnc(-n4nccn4)c(Cl)c3)c2C(F)(F)F)nc1N
[II] CNc1ncc(-n2ncc(C(=O)Nc3cnc(-n4nccn4)c(Cl)c3)c2C(F)(F)F)c2ccccc12
Exercise: Determine, for I and II , which has the greater value of pIC50. Which one? Tell me its label.
Solution: II
(II: 6.76, I: 6.48)
